target: B7-H4 purified monomeric recombinant human protein (Homo sapiens, UniProt Q7Z7D3); experiment: SPR
Sequence (Q7Z7D3 25-259): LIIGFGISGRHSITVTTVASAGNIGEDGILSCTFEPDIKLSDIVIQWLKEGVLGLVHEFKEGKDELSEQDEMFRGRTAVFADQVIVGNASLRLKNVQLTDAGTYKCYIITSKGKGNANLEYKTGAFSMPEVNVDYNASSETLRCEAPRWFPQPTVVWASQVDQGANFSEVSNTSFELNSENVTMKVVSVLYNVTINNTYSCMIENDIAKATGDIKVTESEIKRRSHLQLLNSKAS
ASSAY METRIC: pKd
Keep it numeric: pKd is minus log10 of the concentration in mol/L.

BINDER	pKd
A02 (scFv, V domains shown) VH: EVQLVESGGGVVQPGRSLRLSCAASGFTFTSRAMNWVRQAPGKGLEWVSAISYEGRTQYYADSVKGRFTISRDNSKNTLYLQMNSLRAEDTAVYYCARKRWYGMDVWGQGTTVTVSS VL: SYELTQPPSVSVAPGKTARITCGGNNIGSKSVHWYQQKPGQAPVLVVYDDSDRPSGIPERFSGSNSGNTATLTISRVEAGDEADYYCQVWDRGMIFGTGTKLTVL	10.41

Let's switch to this binder now.
[ask] Which pKd value is on record for parental antibody against B7-H4, scFv-Fc (scFv, V domains shown) VH: EVQLVESGGGVVQPGRSLRLSCAASGFTFSSYSMNWVRQAPGKGLEWVSAISGSGGSTYYADSVKGRFTISRDNSKNTLYLQMNSLRAEDTAVYYCARKRWYGMDVWGQGTTVTVSS VL: SYELTQPPSVSVAPGKTARITCGGNNIGSKSVHWYQQKPGQAPVLVVYDDSDRPSGIPERFSGSNSGNTATLTISRVEAGDEADYYCQVWDSRTYVFGTGTKLTVL ?
[reply] 8.13
